Taken from patent US20240415914A1.

Type: physicochemical
details: stored at room temperature (21-25° C.), day 0
Below, each of the compounds is paired with its reported Stability in Powder Concentrate (content by LCMSMS) value.
Write it as a number; the unit mg/g powder goes unstated.

Consider the worked cases shown below.
# compound, measurement.unit, data.value
data = [
    ("CCCCCc1cc(O)c2c(c1)OC(C)(C)c1ccc(C)cc1-2", "mg/g powder", 0.480),
    ("Cc1c(C)c2c(c(C)c1O)CC[C@@](C)(CCC[C@H](C)CCC[C@H](C)CCCC(C)C)O2", "mg/g powder", 4.85),
    ("C=C(C)[C@@H]1CCC(C)=C[C@H]1c1c(O)cc(CCC)cc1O", "mg/g powder", 0.050),
]

# input Supply recorded Stability in Powder Concentrate (content by LCMSMS) for C=C(C)[C@@H]1CCC(C)=C[C@H]1c1c(O)cc(CCCCC)c(C(=O)O)c1O here.
# output 0.410

# input Supply recorded Stability in Powder Concentrate (content by LCMSMS) for C=C(C)[C@@H]1CCC(C)=C[C@H]1c1c(O)cc(CCCCC)cc1O [CBD, cannabidiol, reference compound] here.
# output 5.85

# input Supply recorded Stability in Powder Concentrate (content by LCMSMS) for CCCCCc1cc(O)c2c(c1)OC(C)(C)[C@@H]1CCC(C)=C[C@@H]21 [D9 THC, delta-9-tetrahydrocannabinol, reference compound] here.
# output 2.55

# input Supply recorded Stability in Powder Concentrate (content by LCMSMS) for CCCCCc1cc(O)c(C/C=C(\C)CCC=C(C)C)c(O)c1 here.
# output 1.1

# input Supply recorded Stability in Powder Concentrate (content by LCMSMS) for CCCCCc1cc2c(c(O)c1C(=O)O)[C@@H]1C=C(C)CC[C@H]1C(C)(C)O2 [D9 THCA, delta-9-tetrahydrocannabinolic acid] here.
# output 0.150

# input Supply recorded Stability in Powder Concentrate (content by LCMSMS) for CCCCCc1cc(O)c2c(c1)OC(C)(CCC=C(C)C)C=C2 (stereo not drawn) here.
# output 0.070

* * *

method.notes: Stability of cannabinoid and Vitamin E components of Beverage 1 (AB White) stored at 8° C. and 21-25° C., LCMSMS over 570 days
Type: physicochemical
details: beverage stored at 8° C., day 11
Below, each of the compounds is paired with its reported Stability in AB White, 8° C. (content by LCMSMS) value.
Write it as a number; the unit µg/mL goes unstated.

Consider the worked cases shown below.
# compound, data.value
rows = [
    ("CCCCCc1cc(O)c(C/C=C(\\C)CCC=C(C)C)c(O)c1", 4.87),
    ("CCCc1cc(O)c2c(c1)OC(C)(C)[C@@H]1CCC(C)=C[C@@H]21 [THCV, delta-9-tetrahydrocannabivarin]", 3.59),
    ("CCCCCc1cc2c(c(O)c1C(=O)O)[C@@H]1C=C(C)CC[C@H]1C(C)(C)O2 [D9 THCA, delta-9-tetrahydrocannabinolic acid]", 0.929),
    ("C=C(C)[C@@H]1CCC(C)=C[C@H]1c1c(O)cc(CCC)cc1O", 0.150),
    ("CCCCCc1cc(O)c2c(c1)OC(C)(C)c1ccc(C)cc1-2", 2.71),
]

# input Supply recorded Stability in AB White, 8° C. (content by LCMSMS) for C=C(C)[C@@H]1CCC(C)=C[C@H]1c1c(O)cc(CCCCC)cc1O [CBD, cannabidiol, reference compound] here.
# output 28.13
